Test system: HEK-293T
Assay: Multiplex assay against HEK293T
Assay type: toxicity, cell-based
Details: human, 12 h, 10 µM, compound concentration 10 uM, replicate 1
readout-name: Population Pyknosed Nuclei (%)

These solved cases illustrate the format of a correct answer.
INSERT INTO results (molecule, result) VALUES
  ('CCN1CCN(Cc2ccc(Nc3ncc(F)c(-c4cc(F)c5nc(C)n(C(C)C)c5c4)n3)nc2)CC1.CS(=O)(=O)O', '84%'),
  ('O=C1NC(=O)C(c2cnc3ccccn23)=C1c1cn2c3c(cc(F)cc13)CN(C(=O)N1CCCCC1)CC2', '73%'),
  ('CCOc1cc2ncc(C#N)c(Nc3ccc(OCc4ccccn4)c(Cl)c3)c2cc1NC(=O)/C=C/CN(C)C', '21%'),
  ('NC(=O)c1cccc(-c2cc(Nc3ccc(OC(F)(F)F)cc3)ncn2)c1', '29%'),
  ('CN1CCC(=C2c3ccccc3CC(=O)c3sccc32)CC1.O=C(O)/C=C/C(=O)O [KETOTIFEN FUMARATE]', '60%');

State recorded Population Pyknosed Nuclei (%) for all listed molecules.
1. Cc1ccc2nc(NCCN)c3ncc(C)n3c2c1.O=C(O)C(F)(F)F.O=C(O)C(F)(F)F
2. CCn1cc(-c2ccnc3[nH]c(-c4cccc(CN(C)C)c4)cc23)c(-c2ccc(NC(=O)N(C)C)cc2)n1

["27%", "35%"]

Item under review: O=C1N/C(=N/c2ccccc2F)S/C1=C\c1ccc(C(=O)O)cc1 . Reported Population Pyknosed Nuclei (%)?
50%

* * *

Please respond with reported Growth Rate for every item in the list.
System: U2OS
Assay: Incucyte cell viability with U2OS; note: filed as whole numbers so only -1 and 0 and 1 occur
Assay type: toxicity, cell-based
Conditions: human, 18 h, 10 µM, compound concentration 10 uM, replicate number 1, timepoint 18 hours
Answers are plain numbers.

These solved cases illustrate the format of a correct answer.
INSERT INTO measurements (compound, target_entity, readout_name, quantitative_readout) VALUES
  ('CNC[C@H](O)c1cccc(O)c1', 'U2OS', 'Growth Rate', 1),
  ('CC1(C)CCC(C)(C)c2cc(NC(=O)c3ccc(C(=O)O)cc3)ccc21', 'U2OS', 'Growth Rate', 0),
  ('Cc1ccc2nc(CNCCCOc3ccccc3)cc(O)c2c1', 'U2OS', 'Growth Rate', 0),
  ('Cc1ccc(-c2ccc3c(ccc4sc5c(c43)NC[C@@H](C)NC5=O)n2)cn1', 'U2OS', 'Growth Rate', 1),
  ('CC(C)(C)OC(=O)N1CCCC1CNC1CCC(c2cc(F)ccc2F)(S(=O)(=O)c2ccc(Cl)cc2)CC1 (configuration not stated)', 'U2OS', 'Growth Rate', 0);

State recorded Growth Rate for all listed compounds.
1. CCNc1cc(N[C@H]2CC[C@H](O)CC2)nc(Nc2ccc3c(ccn3Cc3ccccc3)c2)n1
2. O=C(Nc1cccnn1)N1CCC(=Cc2cccc(Oc3ccc(C(F)(F)F)cn3)c2)CC1

1: 0; 2: 0

* * *

Please respond with reported Population Tubulin-Different-Phenotype (%) for every item in the list.
Test system: HEK-293T
Test: Multiplex assay against HEK293T;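 for Population Tubulin-Different-Phenotype (%): share of the cells with healthy nuclei that show this phenotype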
Type: toxicity, cell-based
Settings: human, 24 h, 1 µM, compound concentration 1 uM, replicate 1

These solved cases illustrate the format of a correct answer.
INSERT INTO assay_data (compound, result) VALUES
  ('CN1CCC(=C2c3ccccc3CC(=O)c3sccc32)CC1.O=C(O)/C=C/C(=O)O [KETOTIFEN FUMARATE]', '49%'),
  ('CN(C)C(=O)C(CCN1CCC(O)(c2ccc(Cl)cc2)CC1)(c1ccccc1)c1ccccc1.Cl [LOPERAMIDE HYDROCHLORIDE]', '80%'),
  ('O=C(Nc1ccc(-n2nc(-c3cccnc3)cc2C(F)(F)F)cn1)c1ccc(-c2ccccc2)c(F)c1 [BI 2049]', '31%'),
  ('O=C1NC(=O)C(c2cnc3ccccn23)=C1c1cn2c3c(cc(F)cc13)CN(C(=O)N1CCCCC1)CC2 [LY-2090314]', '79%'),
  ('CCCS(=O)(=O)Nc1ccc(F)c(C(=O)c2c[nH]c3ncc(Cl)cc23)c1F [PLX-4720]', '9%');

State recorded Population Tubulin-Different-Phenotype (%) for all listed compounds.
1. COc1ccc(-c2ccc3c(N4CCOCC4)nc(N4C[C@@H](C)O[C@@H](C)C4)nc3n2)cc1CO [Ku-0063794]
2. Cc1cn(-c2cc(NC(=O)c3ccc(C)c(Nc4nccc(-c5cccnc5)n4)c3)cc(C(F)(F)F)c2)cn1 [NILOTINIB]
3. C=C1/C(=C\C=C2/CCC[C@]3(C)[C@@H]([C@H](C)/C=C/[C@H](C)C(C)C)CC[C@@H]23)C[C@@H](O)C[C@@H]1O [DOXERCALCIFEROL]

1: 7%; 2: 94%; 3: 30%

State recorded Population Tubulin-Different-Phenotype (%) for all listed compounds.
1. CCNc1cc(N[C@H]2CC[C@H](O)CC2)nc(Nc2ccc3c(ccn3Cc3ccccc3)c2)n1
2. CCN1CCN(c2ccc(Nc3cc(N(C)C(=O)Nc4c(Cl)c(OC)cc(OC)c4Cl)ncn3)cc2)CC1 [INFIGRATINIB]
3. Cn1nc(C(F)(F)F)cc1-c1cnc(N2CCc3cc(S(=O)(=O)Nc4c(F)cc(Cl)cc4F)cc(N4CCCC4=O)c32)nc1 [TP-020]

1: 54%; 2: 78%; 3: 31%

* * *

Please respond with reported Total Cell Count for every item in the list.
System: U2OS
Test: Multiplex assay against U2OS
Type: toxicity, cell-based
Details: human, 12 h, 1 µM, compound concentration 1 uM, replicate 1
Numbers only.

INSERT INTO measurements (molecule, quantitative_readout) VALUES
  ('COc1cc(N2CCN(C)CC2)ccc1Nc1ncc2c(n1)N(C)c1ccccc1C(=O)N2C', 199);

State recorded Total Cell Count for all listed molecules.
1. O=C(Nc1cccnn1)N1CCC(=Cc2cccc(Oc3ccc(C(F)(F)F)cn3)c2)CC1
2. CCN1CCN(Cc2ccc(Nc3ncc(F)c(-c4cc(F)c5nc(C)n(C(C)C)c5c4)n3)nc2)CC1.CS(=O)(=O)O
3. CN1C2CCC1CC(OC(c1ccc(F)cc1)c1ccc(F)cc1)C2.Cl (centres undefined)
4. Cl.O=C(c1ccc(Nc2nccc(-c3cc4ccccc4s3)n2)cc1)N1CCC(N2CCCC2)CC1
5. Cc1ccc2nc(NCCN)c3ncc(C)n3c2c1.O=C(O)C(F)(F)F.O=C(O)C(F)(F)F

1. 187
2. 160
3. 223
4. 145
5. 235

* * *

Test system: Fibroblast
Assay: Multiplex assay against human fibroblast
Format: toxicity, cell-based
Conditions: 12 h, 10 µM, compound concentration 10 uM, replicate 1
Please respond with reported Population Fragmented Nuclei (%) for every item in the list.
Numbers only, in %.

INSERT INTO results (molecule, reading_unit, quantitative_readout) VALUES
  ('CCOc1cc2ncc(C#N)c(Nc3ccc(OCc4ccccn4)c(Cl)c3)c2cc1NC(=O)/C=C/CN(C)C', '%', 25),
  ('CNc1cc(Oc2cc(C(=O)Nc3cc(N4CCN(C)CC4)cc(C(F)(F)F)c3)ccc2C)ncn1', '%', 27);

State recorded Population Fragmented Nuclei (%) for all listed molecules.
1. CNC(=O)c1ccc(Nc2nc(OC3CCCC3)c3c(-c4ccc5nc(C)oc5c4)c[nH]c3n2)c(OC)c1
2. Cl.O=c1c2cccn2c2ccccc2n1CCCN1CCC(c2ccc(Cl)cc2)CC1
3. O=C(Nc1cccnn1)N1CCC(=Cc2cccc(Oc3ccc(C(F)(F)F)cn3)c2)CC1
4. CN(C)C(=O)C(CCN1CCC(O)(c2ccc(Cl)cc2)CC1)(c1ccccc1)c1ccccc1.Cl [LOPERAMIDE HYDROCHLORIDE]

1. 33
2. 28
3. 34
4. 23

State recorded Population Fragmented Nuclei (%) for all listed molecules.
1. CCn1c(=O)c(-c2ccc(-c3cncs3)cc2Cl)cc2cnc(Nc3ccc(N4CCN(C)CC4)cc3)nc21
2. Cn1nc(C(F)(F)F)cc1-c1cnc(N2CCc3cc(S(=O)(=O)Nc4c(F)cc(Cl)cc4F)cc(N4CCCC4=O)c32)nc1

[45, 30]

* * *

Test system: U2OS
Assay: Multiplex assay against U2OS
Format: toxicity, cell-based
Conditions: human, 12 h, 1 µM, compound concentration 1 uM, replicate 2
Please respond with reported Population Fragmented Nuclei (%) for every item in the list.
Give bare numbers, in %.

These solved cases illustrate the format of a correct answer.
INSERT INTO assay_data (smiles_structure, reading_unit, quantitative_readout) VALUES
  ('O=C(Nc1ccc(-c2ccnc(Nc3ccc(N4CCOCC4)cc3)n2)cc1)[C@@H]1CCCN1', '%', 13),
  ('Cl.O=c1c2cccn2c2ccccc2n1CCCN1CCC(c2ccc(Cl)cc2)CC1', '%', 16),
  ('CCn1cc(-c2ccnc3[nH]c(-c4cccc(CN(C)C)c4)cc23)c(-c2ccc(NC(=O)N(C)C)cc2)n1', '%', 12);

The record that follows has no Population Fragmented Nuclei (%) shown yet.
Missing value: Population Fragmented Nuclei (%), U2OS, entry O=C(Cc1ccc(-c2ccc(OCCN3CCOCC3)cc2)cn1)NCc1ccccc1 . Fill in?
5

// data source = ChEMBL document CHEMBL4689842
